Assay: Example 2.1 rhamnolipid precipitation, filtration, centrifugation: magnesium
Conditions: magnesium concentration after treatment; molar ratio 10 to 1
hey, just use T if measured Treatment 2: Rhamnolipid and Filtration Cf is less than 0.2 mmol/L, otherwise F

INPUT: Does CCCCCCCCCC(CC(=O)O)OC(=O)CC(CCCCCCCCC)OC1O[C@@H](C)[C@H](O)[C@@H](O)[C@H]1O (some centres unmarked) [Rha C12C12] have Treatment 2: Rhamnolipid and Filtration Cf strictly under 0.2 mmol/L?
OUTPUT: T

INPUT: # TODO verify Treatment 2: Rhamnolipid and Filtration Cf < 0.2 mmol/L strictly for this compound: CCCCCCCCCCCCCCCC(CC(=O)O)OC1O[C@@H](C)[C@H](O)[C@@H](O)[C@H]1O (some centres unmarked) [Rha C18]
OUTPUT: T

INPUT: Quick check: Treatment 2: Rhamnolipid and Filtration Cf of CCCC(CC(=O)O)OC1O[C@@H](C)[C@H](O)[C@@H](O)[C@H]1O (some centres unmarked) [Rha C6] under 0.2 mmol/L?
OUTPUT: T

INPUT: Hello, I'm reviewing records and need to know if Treatment 2: Rhamnolipid and Filtration Cf of CCCCCCCCCCCC(CC(=O)O)OC1O[C@@H](C)[C@H](O)[C@@H](O)[C@H]1O (some centres unmarked) [Rha C14] is below 0.2 mmol/L. Could you check?
OUTPUT: T

INPUT: Is it true that Treatment 2: Rhamnolipid and Filtration Cf reported for CCCCCCCC(CC(=O)O)OC1O[C@@H](C)[C@H](O)[C@@H](O)[C@H]1O (some centres unmarked) [Rha C10] is less than 0.2 mmol/L?
OUTPUT: F

Values were extracted from patent US20240182513A1.
